Tested system: immobilized human serum albumin (Homo sapiens, UniProt P02768)
Construct: purchased Chiralpak (Chiraltech) 34712
Sequence (P02768 25-609): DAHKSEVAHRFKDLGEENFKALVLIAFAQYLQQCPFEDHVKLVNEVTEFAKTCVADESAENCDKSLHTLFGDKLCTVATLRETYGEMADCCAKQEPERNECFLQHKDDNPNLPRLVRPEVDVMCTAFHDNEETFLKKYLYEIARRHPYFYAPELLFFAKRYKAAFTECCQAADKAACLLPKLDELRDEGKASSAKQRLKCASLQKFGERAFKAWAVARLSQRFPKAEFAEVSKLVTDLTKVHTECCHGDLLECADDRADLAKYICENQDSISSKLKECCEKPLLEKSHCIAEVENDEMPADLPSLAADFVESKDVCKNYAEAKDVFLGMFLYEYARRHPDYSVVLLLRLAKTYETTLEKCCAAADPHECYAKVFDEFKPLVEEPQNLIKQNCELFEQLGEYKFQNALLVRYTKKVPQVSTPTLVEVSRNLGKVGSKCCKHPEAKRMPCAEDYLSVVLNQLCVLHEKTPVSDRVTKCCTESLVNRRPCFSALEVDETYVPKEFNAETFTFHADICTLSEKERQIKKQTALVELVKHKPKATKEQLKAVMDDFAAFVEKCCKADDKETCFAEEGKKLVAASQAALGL
Assay notes: Albumin binding: affinity chromatography on columns with immobilized human serum albumin (net retention time)
Measurement context: isolated binders; HSA column 25° C., PBS pH 7.4/isopropanol gradient
Protocol: In order to identify suitable binder molecules, which when bound to a peptide, such as an insulin, are able to improve the half-life in plasma and to prolong the profile of action, a system was established based on affinity chromatography with serum albumin columns, i.e. columns with immobilized serum albumin. The net retention time of the binders (samples) was calculated according to the following formula: Net retention time=RetTimeSample−RetTimet0 marker […]
Catalogue of NRT [min] (net retention time on columns with immobilized human serum albumin) values
Numbers only here, please. The scale is min.

[[record]]
molecule = "O=C(O)CCCCCCCc1ccc(CCOc2ccc(S(=O)(=O)Nc3ccc(C(=O)NCCOCCOCC(=O)NCCOCCOCC(=O)O)cn3)cc2)cc1 [Binder 43]"
reported_measurement = 11.36

[[record]]
molecule = "O=C(O)CCCCCCCCCCCCCc1ccc(Oc2ccc(S(=O)(=O)Nc3ncc(C(=O)NCCOCCOCC(=O)NCCOCCOCC(=O)O)cn3)cc2)cc1 [Binder 11]"
reported_measurement = 14.52


Value sought: NRT [min] (net retention time on columns with immobilized human serum albumin), system immobilized human serum albumin (Homo sapiens, UniProt P02768), item Cc1nc(NS(=O)(=O)c2ccc(OCCCCCCCCCCCCCCCC(=O)O)cc2)ncc1C(=O)NCCOCCOCC(=O)NCCOCCOCC(=O)O [Binder 47] . Result: 13.73

# lookup: O=C(O)CCCCCCCCCOc1ccc(S(=O)(=O)Nc2ccc(C(=O)NCCOCCOCC(=O)NCCOCCOCC(=O)O)cn2)cc1 [Binder 19] on immobilized human serum albumin (Homo sapiens, UniProt P02768), NRT [min] (net retention time on columns with immobilized human serum albumin) = 10.82

Measured NRT [min] (net retention time on columns with immobilized human serum albumin) (immobilized human serum albumin (Homo sapiens, UniProt P02768)), entry O=C(O)CCCCCCCCCCCCCCCCCc1ccc(S(=O)(=O)Nc2ncc(C(=O)NCCOCCOCC(=O)NCCOCCOCC(=O)O)cn2)cc1 [Binder 4] : 15.75

Summary: O=C(O)CCCCCCCCCCCCCCCCCCCOc1ccc(S(=O)(=O)Nc2ccc(C(=O)NCCOCCOCC(=O)NCCOCCOCC(=O)O)cn2)cc1 [Binder 71] , immobilized human serum albumin (Homo sapiens, UniProt P02768), NRT [min] (net retention time on columns with immobilized human serum albumin) = 14.42
